Tested on: MS2 coat protein
Assay: apparent KD of MS2 coat protein; higher = weaker reporter binding
Settings: Eterna round: R107; input ligand: theophylline 2 mM
Readout Kind: apparent KD of MS2 coat protein (nM)
Numeric answer only, unit nM assumed.

Request: Provide the reported apparent KD of MS2 coat protein (system: MS2 coat protein) for UGGGUACAUGAGGAUCACCCAUGUACUGAAGGAGCGAGAAAUAACUCAGGUAGGUCGCAGACAUGAGGAUCACCCAUGUAAUAAA [Exclusion Arginine A GF 10]
Result: 22.5

Request: Please indicate recorded apparent KD of MS2 coat protein of AGAUUUAUUUUGACCGGGCUCAUUCCUGAAGGAGCGCAGAACAAUGCAGGUAGGUCGCAGGACAUGAGGAUCACCCAUGUCAAGC [Isaes] measured with MS2 coat protein.
Result: 19.9

Request: Tell me apparent KD of MS2 coat protein of GCCUCCAGCCGAAGGAGCGCUAGAAGGUGACAUGAGGAUCACCCAUGUGUGUGAUGUGGCUAGCAGGUAGGUCGCGGAGGAGGUA [Exclusion - Arginine B (Freestyle 21)] when tested on MS2 coat protein.
Result: 111

Request: Lab note: MS2 coat protein assay, enter apparent KD of MS2 coat protein for GGAUAUGGUGAAAGAGAGAAGAGAGAUGAUACCAGUAAGAGAAGAUGCCCUUGGCAGCAUAGAGACAUGAGGAUCACCCAUGUAA [solution] here
Result: 24.3

Request: Provide apparent KD of MS2 coat protein, tested on MS2 coat protein, for AGAGUCAGACAAAAGUCUGGCUCAGCCGAAGGAGCGUCCGAAAGGACAGGUAGGUCGCGGUUGCAUGAGGAUCACCCAUGUUCCU [ArgAS 30 #OpenEnded #AlternativeMS2] .
Result: 528

Request: Fetch value of apparent KD of MS2 coat protein on MS2 coat protein for ACAUGAGUGGAUAAUAAAUAAGAAGGCGAAGGAGCGUGAAGAAUCACAGGUAGGUCGCGCAAAAUACAUGAGGAUCACCCAUGUU [JR_Nu_ExcArginiA_Sub031] .
Result: 29.8

---

Tested on: K4 kissing-loop RNA reporter;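 note: bound reporter read as fluorescence of individual clusters on recovered sequencing chips by microscopy, with normalized cluster intensities fitted with a binding model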
Assay: apparent KD of K4 kissing-loop reporter; higher = weaker reporter binding
Conditions: Eterna round: R107; input ligand: FMN 200 uM
Can you tell me apparent KD of K4 kissing-loop reporter for the items I'm about to list?
Output spec: scalar in µM, unitless text.

Request: Report value only: apparent KD of K4 kissing-loop reporter, K4 kissing-loop RNA reporter, GGAUAGGACAGAGGAUAUCUCUGAGGCAAGAAAACUUGUCUCUAAAGAGAUGACUCAGUGAUGUUGAGAGAAGGCUGUCCUAUCG [FmnBX 9 - #SwitchBubble #StaticStem]
Result: 0.211

Request: Send back K4 kissing-loop RNA reporter apparent KD of K4 kissing-loop reporter of GUAGCACUUGACAGUGAUGUUGUCAAGGACAAGGAUAUCAUCUCAAUGAGAAGGUGUCCUUGAUAACAGCUACGGGAAUAUCCCA [Omei KL FMN A Exc D v3] only.
Result: 0.312

Request: Using K4 kissing-loop RNA reporter as the test system, report measured apparent KD of K4 kissing-loop reporter of ACUUUGGGCCCAGUGAUGUUGGGUCCAGAUACCAGACGUAAAUAAGUCCCUUGGCAGCUGCGUACUAACUAGCACAGGAGGGUCC [Edleaes] .
Result: 0.135

Request: Fill in: apparent KD of K4 kissing-loop reporter on K4 kissing-loop RNA reporter, entry AAACGUUGGUGCGAUACCAGCUUGAUCGGUAAACGAUCUACUGGAGUGAUGUUCCUAAAUAGCCCUUGGCAGCGCACCGACGAAA [MAT - Same State Theophlline B - Mod of Eli - D8]
Result: 0.181

Request: Enter recorded apparent KD of K4 kissing-loop reporter with K4 kissing-loop RNA reporter for UAGGGCCCUGGAGGAUAUGAGUCUAGUGAUGUUAGGCGGUCCAUGCGCGUGGCGCGUUAUGCCCUUUUAGAAGGCCAGGGCCCUA [#2 Exclusion - FMN B Attempt #17 (HarryS)] here.
Result: 0.119

---

Task for the reader: assign each of the following sequences its reported apparent KD of MS2 coat protein.
Test system: MS2 coat protein
Assay: apparent KD of MS2 coat protein, switch OFF state (with FMN for OFF switches, without FMN for ON switches); designed switch direction (-1 OFF switch, 1 ON switch): 1; higher = weaker reporter binding
Settings: FMN input: 0 or 200 uM; Eterna round: R93 (includes R88 designs)
Output spec: scalar in nM, unitless text.

Request: Using known records, supply apparent KD of MS2 coat protein for UUGCAGUACGGGUAGGAUAUGUAGGGUGGUACAUGAGGAUCACCCAUGUGUCCACCCUUCGACCGGCAGAAGGGCCUGUCACUGC [Lerieseser]
Result: 17.3

Request: Annotate the sequence AAAAAACAUGAGGAUCACCCAUGUCGAAAGACAUGAGGAUAUGUACAGACUUCGGUCUGUACAGAAGGCAUGUCAA [SS1 - 1020] with its measured apparent KD of MS2 coat protein.
Result: 107

Request: Consider the sequence AAAAUACAUGAGGAUCACCCAUGUGAGAAAAACGCAGGAUAUGCCCGAAAAAAAAGGCGGGCAGAAGGGUGAAAAA [SameState1-II] and give its recorded apparent KD of MS2 coat protein.
Result: 90.4

Request: Provide measured apparent KD of MS2 coat protein value, entry: AAAAUACAUGAGGAUCACCCAUGUGAAAAUAUGGGAGGAUAUACCGAAAAAAAAAAAACGGUAGAAGGCCCAAAAA [SS! 1 MT 7]
Result: 43.5

Request: Output apparent KD of MS2 coat protein of GAAAAACAUGAGGAUCACCCAUGUGUAAAUAUGGGAGGAUAUACGAAGACGUAAGUCAAAGUAGAAGGCCUAAAAG [Garnet 92]
Result: 119

Request: Query apparent KD of MS2 coat protein for GAAAAACAUGAGGAUCACCCAUGUAAAAAUAUGGGAGGAUAUUCAAACACGAAAGUCAAAGAAGAAGGCCUAAAAG [Garnet 2]
Result: 207

Request: Please report apparent KD of MS2 coat protein for the following sequence: CGAUCACAUGAGGAUCACCCAUGUAUCGAUAAACGAGGAUAUGGGAGCGGGAUCUGUGGACCAGAAGGCGUACGGA [Celeus]
Result: 38.7

---

Tested on: MS2 coat protein
Test: apparent KD of MS2 coat protein; designed switch direction (-1 OFF switch, 1 ON switch): 1; higher = weaker reporter binding
Conditions: Eterna round: R95; input ligand: FMN 200 uM
Hi there, I'd appreciate the recorded apparent KD of MS2 coat protein for every entry that follows.
Give just the numeric value; nM need not be written.

Request: Input CAGCGCUGUCGAGAGGAUAUGUGGUGAUGGACAUGAGGAUCACCCAUGUUAGCGACAGCAUCACGGCAGAAGGCUCUACCGCUGC [Soteed Omei mod 30] (puzzle: Same State 2) , output reported apparent KD of MS2 coat protein.
Result: 31.2

Request: For the sequence GUCGGGCAAGCUUUUUUCUCGUAGUGUAAACAUGAGGAUCACCCAUGUGCUCGCCCUGGAUCUUUGGAUCGCAGAAA [Isxevevere] (puzzle: Sensor for hsa-mir-208a) , give its measured apparent KD of MS2 coat protein value.
Result: 57.5

Request: Return apparent KD of MS2 coat protein for the following sequence: UGCAUACAUGAGGAUCACCCAUGUCAACGUAGCCGAGGAUAUGGAUUGCCGUGAGGCGUGCCAGAAGGCGGAGAGG [Same State 1 - Mod of Vinnie Teenbexe] (puzzle: Same State 1)
Result: 29.1

---

Provide the reported apparent KD of MS2 coat protein of each item.
System: MS2 coat protein
Assay: apparent KD of MS2 coat protein; higher = weaker reporter binding
Conditions: Eterna round: R107; input ligand: none
# value in nM; strip the unit string

Request: Identify measured apparent KD of MS2 coat protein obtained with MS2 coat protein for AGUUAUUUCCGAAGGAGCGUUAUACAUGAGGAUCACCCAUGUACAUGAGGUUCAACAUGAAAACAGGUAGGUCGCGGAUUUUGUC [Exclusion Arginine B4] .
Result: 19.2

Request: # lookup: MS2 coat protein apparent KD of MS2 coat protein, key = GGUAUGUAUUCGGAAACGAAUGCAUACCAUCGAGGACCGGUACGGCCGCCACUCGUGGCUGAUCAACAUGAGGAUCACCCAUGUA [Ex Tryptophan A 1]
Result: 85.9

Request: Find apparent KD of MS2 coat protein for GUUGGAUUUUCGGCCGCCACUGAGAGAGUCAUGUGAACAUGAGGAUCACCCAUGUAAUAUAUAUACAGGACCGGGAGGGUUGUAA [4.L] on MS2 coat protein and write it down.
Result: 14.6

Request: Provide apparent KD of MS2 coat protein, system MS2 coat protein, entry AGUCUUAAAGGAAGGAGCGCAAUCAUAACAUGAGGAUCACCCAUGUCGAGGUGAGGGUCAUUGCAGGUAGGUCGCCUUACUAAGA [Same State - Arginine B (Freestyle 7)]
Result: 79.6

Request: Print MS2 coat protein apparent KD of MS2 coat protein for ACCUGUACGAAAAGUGCAGGACAUGGAAAUCGAGGACCGGUACGGCCGCCACUCGUUGAAAACAAGUGGAUCACCCUUGUCCAUG [TrypAS 3 #AlternativeMS2 #Zipper #StaticStem] .
Result: 417

Request: Output reported apparent KD of MS2 coat protein of the sequence ACUCGAGGUGGAAGGAGCGGGAGACAUGAGCAUCACAUGAGGAUCACCCAUGUAGGAUCAUCCCAGGUAGGUCGCCAUGUCGAAA [avtamullin] on MS2 coat protein.
Result: 217

Request: Would you please give the reported apparent KD of MS2 coat protein of UGUAUGGACUGAAGGAGCGCCUCAAAACAUGAGGAUCACCCAUGUGGACAAUAAGUCCUUGGGCAGGUAGGUCGCAGUCCAUACU [ArgBX 6 #StaticStem #MS2Late] with MS2 coat protein?
Result: 50

Request: Provide measured apparent KD of MS2 coat protein on MS2 coat protein for GGGCCCGGGCGCGAGCCCGGGCCCAUUGAUACCAGUGAUAUAUAGCGCCCUUGGCAGCGAAUCCUAACAUGAGGAUCACCCAUGU [5.I] please.
Result: 38.8

Request: Please tell me the measured apparent KD of MS2 coat protein for GGGACAUGAGGAUCACCCAUGUACCGGUCCCGAGGACCGGUACGGCCGCCACUCGAUGACCUCAUAGUCUGCUGGAGCAGCAGAC [Usesedarin] ; system: MS2 coat protein.
Result: 54.6

Request: Tell me apparent KD of MS2 coat protein of AGUCGAAACUGAAGGAGCGAGAUGACAACAUUGGGUCUAACAUGAGGAUCACCCAUGUAAUCUCAGGUAGGUCGCAGUAACAAAA [Exclusion Arginine B GF 16] when tested on MS2 coat protein.
Result: 78.7

Request: Look up MS2 coat protein data: apparent KD of MS2 coat protein of AGUCUUAUAGGAAGGAGCGCAAUCAUAACAUGAGGAUCACCCAUGUCGAGGUGAGGGUCAUUGCAGGUAGGUCGCCUAACUAAGA [Same State - Arginine B (Freestyle 8)] , then report it.
Result: 281

Request: State measured apparent KD of MS2 coat protein of the sequence UAUGCACAUGAGGAUCACCCAUGUAUGGAAGGAGCGGUGAAUAAACCAGGUAGGUCGCCAUGGUGAGGAUCAUCUAUGUAAUCGU [Exclusion - Arginine A (Freestyle 6)] with MS2 coat protein.
Result: 93.2

Request: Fill in apparent KD of MS2 coat protein for UAUAUAUAGGGAAGGAGCGGGAACAUGAGGAUCACCCAUGUACAUGAGGAUCACCCAUGUACCCAGGUAGGUCGCCCAUAUAUAU [Exclusion - Arginine B] tested with MS2 coat protein.
Result: 250

Request: State, for MS2 coat protein, measured apparent KD of MS2 coat protein of the sequence listed here: AGUUAAAUAUGUUAAUAACUAUUUACUGAAGGAGCGUGUUUUGACACAGGUAGGUCGCAGUGACAUGAGGAUCACCCAUGUCGUA [#08 Same State - Arginine A]
Result: 17.4

Request: GET apparent KD of MS2 coat protein where system = MS2 coat protein and item = GCCUCCAGCCGAAGGAGCGCUAGAAGGUGACAUGAGGAUCACCCAUGUGUGUGAUGUGGCUAGCAGGUAGGUCGCGGAGGAGGUA [Exclusion - Arginine B (Freestyle 21)]
Result: 99.7

Request: Supply apparent KD of MS2 coat protein measured with MS2 coat protein for CAAACAUGAGGAUCACCCAUGUAAACCGAAGGAGCGACGCAUAAGUCAGGUAGGUCGCGGAAGAUAAAAUAGAACACUGGGCACA [Same State Arginine A GF1] .
Result: 17.7

Request: GET apparent KD of MS2 coat protein where system = MS2 coat protein and item = UGUAUGGACUGAAGGAGCGGAUGAUAACCUGAGGAUCACCCGGGUAAUAAGGCGAAAGCCAUCCAGGUAGGUCGCAGUCCAUACU
Result: 101

Request: Answer briefly: apparent KD of MS2 coat protein recorded on MS2 coat protein for GGAUAUGGUGAAAGAGAGAAGAGAGAUGAUACCAGUAAGAGAAGAUGCCCUUGGCAGCAUAGAGACAUGAGGAUCACCCAUGUAA [solution]
Result: 22.9

Request: # return apparent KD of MS2 coat protein for GGGCUGUGACCAGGAAAUGGUCACAGCCCACGAGGACCGGUACGGCCGCCACUCGAAAGUACAUGAGGAUCACCCAUGUCGGUGG [#1 Same State - Tryptophan A Attempt #8 (HarryS)] , test system: MS2 coat protein
Result: 34.1

Request: Jot down apparent KD of MS2 coat protein (MS2 coat protein) of CCUAUGCAGUCGGCCGCCACUGAAAUAAAUUAUAUUACCUCAGAAACAUGAGGAUCACCCAUGUACAGGACCGGGACUGUAUAGG [Ex Tryptophan B 15] .
Result: 35.3

Request: Enter apparent KD of MS2 coat protein (test system MS2 coat protein) for GGUGGCGUGACGGAUACCAGCCACCACCGCAAGGCCACAUGAGGAUCACCCAUGUUGGGUGGCCCUUGGCAGCUGUCGUGCGGCG [#1 Same State - Theophylline B Attempt #20 (HarryS)]
Result: 263

Request: Give apparent KD of MS2 coat protein; test system MS2 coat protein; sequence ACAUGAGGAUCACCCAUGUACAUGAGGGAAGGAGCGGUACAUGAGCCAGGUAGGUCGCCCAUGAGCAUCAGGCAUGUACAUCAGC [kokmmullin]
Result: 99.5

Request: Under MS2 coat protein, report apparent KD of MS2 coat protein for GGGCGCUAUCCCGCGAGGGAUAGCGUUCGACGAGGACCGGUACGGCCGCCACUCGAACGAGUGGUGACAUGAGGAUCACCCAUGU [Naa]
Result: 53
